The measured values listed here are drawn from patent US12660819B2.

- Tested on: Amaranthus retoflexus (AMARE)
- PROCEDURE_DETAILS: Pre-emergence Test (glasshouse, percentage damage to the plant)
- Type: in vivo
- ASSAY_CONTEXT: 1000 g/ha unless otherwise stated, five-point scale
MEASURED_PARAMETER: percentage damage to the plant, AMARE

[
  {
    "COMPOUND": "CCOC(=O)c1c(-c2ccc(Br)cc2F)n(CC)c(C)c(-c2ccc(Cl)cc2)c1=O [Compound 137]",
    "RESULT": "5 (5=81-100%)"
  },
  {
    "COMPOUND": "CCn1c(C)c(-c2cc(C)cs2)c(=O)c(C(=O)O)c1-c1ccc(Cl)c(Cl)c1 [Compound 86]",
    "RESULT": "4 (4=61-80%)"
  },
  {
    "COMPOUND": "CCn1c(C)c(-c2ccc(OC)cc2)c(=O)c(C(=O)O)c1-c1ccc(Cl)c(Cl)c1 [Compound 18]",
    "RESULT": "1 (1=0-20%)"
  },
  {
    "COMPOUND": "CCn1c(C)c(-c2ccc(F)c(C#N)c2)c(=O)c(C(=O)O)c1-c1ccc(Cl)cc1 [Compound 174]",
    "RESULT": "1 (1=0-20%)"
  },
  {
    "COMPOUND": "CCn1c(C)c(-c2cccc(C(F)(F)F)c2)c(=O)c(C(=O)O)c1-c1ccc(Cl)c(Cl)n1 [Compound 150]",
    "RESULT": 0
  },
  {
    "COMPOUND": "CCn1c(C)c(-c2ccc(Cl)cc2)c(=O)c(C(=O)O)c1-c1ccc(Cl)cc1 [Compound 138]",
    "RESULT": "5 (5=81-100%)"
  },
  {
    "COMPOUND": "CCn1c(C)c(-c2cccc(C(C)=O)c2)c(=O)c(C(=O)O)c1-c1ccc(Cl)c(Cl)c1 [Compound 112]",
    "RESULT": "1 (1=0-20%)"
  },
  {
    "COMPOUND": "CCn1c(C)c(-c2cc(C)c(F)c(C)c2)c(=O)c(C(=O)O)c1-c1ccc(Cl)cc1 [Compound 173]",
    "RESULT": 0
  },
  {
    "COMPOUND": "CCn1c(C)c(-c2ccc(OC)c(Cl)c2)c(=O)c(C(=O)O)c1-c1ccc(Cl)c(Cl)c1 [Compound 101]",
    "RESULT": "2 (2=21-40%)"
  },
  {
    "COMPOUND": "CCn1c(C)c(-c2cccc(OC)n2)c(=O)c(C(=O)O)c1-c1ccc(Cl)c(Cl)c1 [Compound 113]",
    "RESULT": "1 (1=0-20%)"
  },
  {
    "COMPOUND": "CCn1c(C)c(-c2cccs2)c(=O)c(C(=O)O)c1-c1ccc(Cl)c(Cl)c1 [Compound 74]",
    "RESULT": "1 (1=0-20%)"
  },
  {
    "COMPOUND": "CCn1c(C)c(-c2cc(C(F)(F)F)ccc2F)c(=O)c(C(=O)O)c1-c1ccc(Cl)cc1 [Compound 177]",
    "RESULT": "1 (1=0-20%)"
  },
  {
    "COMPOUND": "CCn1c(C)c(-c2ccc(OC(F)(F)F)cc2)c(=O)c(C(=O)O)c1-c1ccc(Cl)c(Cl)c1 [Compound 95]",
    "RESULT": "1 (1=0-20%)"
  },
  {
    "COMPOUND": "CCn1c(C)c(-c2cncn2C)c(=O)c(C(=O)O)c1-c1ccc(Cl)c(Cl)c1 [Compound 40]",
    "RESULT": "1 (1=0-20%)"
  },
  {
    "COMPOUND": "CCn1c(C)c(-c2ccccc2C)c(=O)c(C(=O)O)c1-c1ccc(Cl)c(Cl)c1 [Compound 31]",
    "RESULT": "1 (1=0-20%)"
  },
  {
    "COMPOUND": "CCn1c(C)c(-c2ccc(OC)c(OC)c2)c(=O)c(C(=O)O)c1-c1ccc(Cl)c(Cl)c1 [Compound 99]",
    "RESULT": "2 (2=21-40%)"
  }
]
